Assignment: determine reported composite z-score for the given compounds.
assayProcedure: small-molecule binders of probe aLefty1, primary screen, biochemical, small-molecule microarray, 635/667 nm fluorescence (AID 1153);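 also: score merges spot fluorescence with signal-to-noise ratio from the scanned slide images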
testParameters: higher = more signal
// keep it numeric: no unit symbol after the value

Return reported composite z-score; argument: C=CCOC(=O)[C@@H]1[C@H]2C(=O)O[C@H](c3ccccc3)[C@H](c3ccccc3)N2[C@H](c2ccc(OCCOC(=O)[C@H]3C[C@H]4C(=O)N[C@@H](CCCCNC(C)=O)C(=O)N4[C@H]3c3ccc(O)cc3)cc2)[C@@]12C(=O)Nc1ccc(I)cc12
0.325

Record: COC(=O)[C@@]1(Cc2ccc(OC)cc2)[C@H]2c3cc(C(=O)N(C)C)n(CCc4ccc(OC)c(Br)c4)c3C[C@H]2CN1C(=O)c1ccccc1
1.61

And CC[C@@H]1C=C(C(=O)O)[C@H](c2ccccc2)N1S(=O)(=O)c1ccc([N+](=O)[O-])cc1 ?
-0.405

###

testedOn: Neurogenic locus notch homolog protein 3 (Homo sapiens)
assayProcedure: NOTCH3 binders on small-molecule microarray, primary screen, biochemical, 635/667 nm fluorescence (AID 1096)
testParameters: NOTCH3 binding, 635 nm fluorescence, higher = more signal
What composite z-score was measured for each of the following?
Number only, please.

Which value of composite z-score has been reported for CCCC=C(CCC)[C@@H](NC(=O)c1ccccc1)c1ccccc1 in the records?
-0.177

What about CC(C)=C1C(=O)C(c2ccccc2)=C2CN3C(=O)N(CCc4ccccc4)C(=O)[C@]3(Cc3ccccc3)[C@H]21 ?
-0.546

Another compound to check: COCCOC(=O)N1C(=O)[C@@]2(c3cc(C#CCNC(N)=O)ccc31)[C@H](c1ccc(OCCO)cc1)N1[C@H](c3ccccc3)[C@H](c3ccccc3)OC(=O)[C@H]1[C@@H]2C(=O)N1CCCCCCC1
0.555

Ok, now CO[C@H]1COC(=O)[C@@H](Cc2ccccc2)NC(=O)[C@@H](C)COC(=O)CC=C[C@@H]1C
0.269

And COC(=O)[C@@]1(Cc2ccc(OC)cc2)[C@H]2c3cc(C(=O)N(C)C)n(CCc4ccc(OC)c(Br)c4)c3C[C@H]2CN1C(=O)c1ccccc1 ?
1.01

What do we get for COc1ccc([Si](C)(C)[C@@H]2[C@@H](CCO)O[C@]3(C(=O)N(Cc4ccccc4)c4ccccc43)[C@H]2C)cc1 ?
0.167

What would you report for CCC1=C2CN(Cc3ccccc3Br)[C@@H]([C@@H](O)Cc3ccccc3)C2C=CCC1 (some centres not stated) ?
1.05

###

assayProcedure: small-molecule binders of probe aNOTCH2, primary screen, biochemical, small-molecule microarray, 635/667 nm fluorescence (AID 1121);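 also: score merges feature fluorescence read at 667 nm with its signal to noise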
testParameters: higher = more signal
Provide the recorded composite z-score for the entries that follow.
Respond using a number only.

What value of composite z-score has been recorded for this entry: NC(=O)NCC#Cc1ccc2c(c1)[C@]1(C(=O)N2)[C@H](C(N)=O)[C@H]2C(=O)O[C@H](c3ccccc3)[C@H](c3ccccc3)N2[C@@H]1c1ccccc1OCCO
-0.0762

Please give the result for COCCCNC(=O)[C@@H]1c2ccccc2C(=O)N(CC23CC4CC(CC(C4)C2)C3)[C@H]1c1ccc(CO)cc1 too.
-0.0232

Queued: CCCC=C(CCC)[C@@H](NS(=O)(=O)c1ccc(C(F)(F)F)cc1)c1ccc(-c2ccccc2)cc1
-0.0467

Another molecule to look at: C=C(/C(=C/C[C@@H](OC(=O)c1ccncc1)c1ccc(CO)o1)c1cnc2ccccc2c1)C(C)C
-0.132

And what about the molecule O=C1C2C=CC(C(O)C(c3ccccc3)c3ccccc3)N(Nc3ccc([N+](=O)[O-])cc3)C2C(=O)N1c1ccccc1 (configuration not stated) ?
-0.115

And what about the molecule Cc1ccc(S[C@]2(C(=O)NC(C)C)CC(=O)N(Cc3cc(C(F)(F)F)cc(C(F)(F)F)c3)[C@@H]2c2ccc(CO)cc2I)cc1 ?
-0.14

Can you handle CC(C)[Si]1(C(C)C)OCc2cc(C3CC3)nc(-c3ccccc3)c21 next?
-0.12
